- assayedSystem: human RORγt ligand binding domain (RORγt LBD) (Homo sapiens (Human))
- Sequence (P51449 other isoform, or with tags, fused parts or gaps): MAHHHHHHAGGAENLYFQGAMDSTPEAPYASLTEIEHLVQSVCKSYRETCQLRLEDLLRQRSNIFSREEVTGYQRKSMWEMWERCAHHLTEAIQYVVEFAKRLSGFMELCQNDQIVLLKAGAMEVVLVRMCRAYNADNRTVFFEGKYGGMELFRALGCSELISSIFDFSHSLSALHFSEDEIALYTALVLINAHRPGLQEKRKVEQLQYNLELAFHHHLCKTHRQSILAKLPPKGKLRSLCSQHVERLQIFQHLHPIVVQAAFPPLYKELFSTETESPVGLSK
- methodDescription: RORγt ThermoFluor assay (thermal shift, binding affinity Kd)
- experimentalContext: ThermoFluor Assay, Kd
reportedMetric: pKd
Kindly note that pKd refers to -log10 of the concentration in mol/L and answer with the value alone.

## Task Give pKd for the following compound: COc1nc2ccc(C(O)(c3ccc(C)nc3C)c3cnnn3C)cc2c(Cl)c1CC1CCS(=O)(=O)CC1 (single isomer, unassigned)
## Result 6.96

###

- assayedSystem: human RORγt ligand binding domain (RORγt LBD) (Homo sapiens (Human))
- methodDescription: RORγt ThermoFluor assay (thermal shift, binding affinity Kd)
- experimentalContext: read-out: ThermoFluor Assay, Kd
Decision: Kd beneath 1000 nM gives Yes; Kd meeting or exceeding 1000 nM gives No.

Observe how each entry below is paired with its result.
| compound | assayedSystem | groupLabel |
| --- | --- | --- |
| COc1nc2ccc(C(O)(c3cncn3C)C3CCN(S(C)(=O)=O)CC3)cc2c(Cl)c1CC1CCOCC1 (single isomer, unassigned) [Example 6b] | human RORγt ligand binding domain (RORγt LBD) (Homo sapiens (Human)) | Yes |
| COc1nc2ccc([C@](O)(c3ccccc3)C3CCN(C(C)=O)CC3)cc2c(Cl)c1CC1CCOCC1 | human RORγt ligand binding domain (RORγt LBD) (Homo sapiens (Human)) | Yes |
| COc1nc2ccc([C@@](O)(c3ccccc3)C3CCN(C(C)=O)CC3)cc2c(Cl)c1CC1CCOCC1 | human RORγt ligand binding domain (RORγt LBD) (Homo sapiens (Human)) | Yes |
| Cc1c(-c2ccc3c(cnn3C)c2)nc2ccc(C(O)(c3cccnc3)c3cccc(Cl)c3)cc2c1Cl (stereo not shown) | human RORγt ligand binding domain (RORγt LBD) (Homo sapiens (Human)) | No |
| CC(=O)N1CCC(C(O)(c2ccc3nc(C(F)(F)F)c(C(=O)N4CCCCC4)c(C(F)(F)F)c3c2)c2cncn2C)CC1 (stereo not shown) | human RORγt ligand binding domain (RORγt LBD) (Homo sapiens (Human)) | No |

## Task Is Kd of `COc1nc2ccc(C(O)(c3cnc(C)n3C)c3cnc(C)n3C)cc2c(Cl)c1OCc1ccccc1` strictly below 1000 nM?
## Result Yes

## Task A record lists COc1nc2ccc(C(O)(c3ccc(C)nc3C)c3cnnn3C)cc2c(Cl)c1OCCN(C)C (single isomer, unassigned) [Example 74b] . Is its Kd below 1000 nM?
## Result No

## Task Field: below-cutoff. Rule: recorded Kd strictly less than 1000 nM. Subject: Cn1cncc1C(O)(c1ccc(C(F)(F)F)nc1)c1ccc2nc(N3CCC3)c(OCc3ccccc3)c(Cl)c2c1 (stereo not shown)
## Result Yes
